Below, each entry is listed alongside its reported Selectivity.
tested on: Bevacizumab; assay: Microtiter plate chromatography of resins: binding and elution of Bevacizumab; details: fraction of bound Bevacizumab divided by fraction of bound HCP; truncated for values beyond 10
API note: the answer field is a bare number with no unit suffix.

Cc1cc(NC(=O)c2ccc3c(c2)ncn3CCCN)nn1-c1ccccc1 ... 2.0

Dear colleague, please send me the reported Selectivity for `Cn1nc(C(=O)Nc2ccc3c(c2)C(=O)N(CCCN)CCO3)c2ccccc21` when you can.
2.2

Dear colleague, please send me the reported Selectivity for `NCCCn1cnc2cc(C(=O)Nc3nccs3)ccc21` when you can.
2.7

Dear colleague, please send me the reported Selectivity for `CCSc1nnc(NC(=O)c2ccc3c(c2)ncn3CCCN)s1` when you can.
2.5

Dear colleague, please send me the reported Selectivity for `NCCCn1cnc2cc(C(=O)Nc3nnc(-c4ccncc4)s3)ccc21` when you can.
10.0

Dear colleague, please send me the reported Selectivity for `NCCCOc1ccc(C(=O)Nc2nnc(-c3ccco3)s2)cc1` when you can.
2.9

Dear colleague, please send me the reported Selectivity for `NCCCn1cnc2cc(C(=O)Nc3nnc(C4CC4)s3)ccc21` when you can.
3.4

Dear colleague, please send me the reported Selectivity for `NCCCNc1ccc(C(=O)Nc2nnc(-c3ccco3)s2)cc1[N+](=O)[O-]` when you can.
3.4

Dear colleague, please send me the reported Selectivity for `NCCCn1cnc2cc(C(=O)Nc3nc(-c4ccccc4)ns3)ccc21` when you can.
3.3
